Target: human GLP-1 receptor (human, UniProt P43220 24-463)
Experiment: cell-based or functional assay
Non-standard residues stand in square brackets, D forms with d. Primed or numbered codes have the meaning given here. No end group written: not given here. mPEG40k‑branched = branched 40 kDa PEG (2 × 20 kDa) maleimide, attached to the Cys thiol; mPEG‑maleimide = 30 kD linear mPEG-maleimide attached to the Cys; mPEG 20 kDa = 20 kD mPEG-maleimide, thioether-linked to the Cys; Aib′ = alpha aminobutyric acid (source's wording)
measured_parameter: EC50 human
Phrase the answer as number then unit, nothing more needed.

Sure, the documented EC50 human for HGEGTFTSDVSSYLE[Aib′]QAAKEFIAWLVKGRGC(mPEG‑maleimide 20 kDa)SG (also called cgGLP-19) [mgGLP19 & cgGLP- (SEQ ID NO: 21 + 20k PEG)] is 0.00032 nM

Input HGEGTFTSDVSSYLE[Aib′]QAAKEFIAWLVKGRGC(mPEG‑maleimide 10 kDa)SG-NH2 [cgGLP-26 (SEQ ID NO: 22 + 10k PEG)] . Output EC50 human: 0.059 nM

Measured EC50 human of HGEGTFTSDVSSYLE[Aib′]QAAKEFIAWLVKGRGC(mPEG‑maleimide 20 kDa)G-NH2 [mgGLP-16 (SEQ ID NO: 20 + 20k PEG)] : 0.2 nM

Please fill in: EC50 human reported for H[Aib′]EGTFTSDVSSYLE[Aib′]QAAKEFIAWLVKGRGC(mPEG 20 kDa)SG [cgGLP-20 (SEQ ID NO: 25 + 20k mPEG)] = 0.099 nM

// HGEGTFTSDVSSYLE[Aib′]QAAKEFIAWLVKGRGC(mPEG‑maleimide 20 kDa)SGG-NH2 [mgGLP-15 (SEQ ID NO: 24 + 20k PEG)] : EC50 human value = 0.2 nM

Summary for this binder, HGEGTFTSDVSSYLE[Aib′]QAAKEFIAWLVKGRGC(mPEG‑maleimide 20 kDa)A-NH2 (also called cgGLP30) [mgGLP32 & mgGLP-20 (SEQ ID NO: 18 + 20k PEG)] : EC50 human is 0.13 nM

Recorded result, HGEGTFTSDVSSYLE[Aib′]QAAKEFIAWLVKGRGC(mPEG‑maleimide)SG-NH2 (also: PEG on Cys32: 30k, but the text says branched 40 kDa) [cgGLP-28 (SEQ ID NO: 22 + 30k PEG)] , EC50 human: 0.1 nM

response.value for HGEGTFTSDVSSYLE[Aib′]QAAKEFIAWLVKGRG-NH2 [HGEGT FTSDV SSYLE [Aib]QAAK EFIAW LVKGR G-AMIDE (SEQ ID NO: 15)] (field: EC50 human) = 0.027 nM

Value of EC50 human reported for the binder HGEGTFTSDVSSYLE[Aib′]QAAKEFIAWLVKGRGC(mPEG‑maleimide 5 kDa)SG-NH2 (also called cgGLP-25) [cpGLP-25 (SEQ ID NO: 22 + 5k PEG)] is 0.039 nM

The binder HGEGTFTSDVSSYLE[Aib′]QAAKEFIAWLVKGRGC(mPEG40k‑branched)SG-NH2 [cgGLP-29 (SEQ ID NO: 22 + 40k branched PEG)] showed EC50 human equal to 0.15 nM

Short answer for HGEGTFTSDVSSYLE[Aib′]QAAKEFIAWLVKGRGC(mPEG‑maleimide 20 kDa)SG-NH2 [cgGLP-24 cgGLP-27, mgGLP-22, mgGLP-33 & mgGLP-27 (SEQ ID NO: 22 + 20k PEG)] : EC50 human was 0.1 nM
